tested on: RKO; test: Cytotoxicity against human RKO cells assessed as growth inhibition incubated for 68 hrs by MTT assay; type: functional, cell-based
property-measured: IC50 (µM)
Express the result in µM but write the number alone.

1. CC(C)[C@H]1C(=O)O[C@H](C)[C@H](NC(=O)c2c3nc4c(C(=O)N[C@@H]5C(=O)N[C@H](C(C)C)C(=O)N6CCC[C@H]6C(=O)N(C)CC(=O)N(C)[C@@H](C(C)C)C(=O)O[C@@H]5C)cccc4oc-3c(I)c(=O)c2N)C(=O)N[C@H](C(C)C)C(=O)N2CCC[C@H]2C(=O)N(C)CC(=O)N1C : 3.3
2. COc1c2oc3c(OC)ccc(C(=O)N[C@@H]4C(=O)N[C@H](C(C)C)C(=O)N5CCC[C@H]5C(=O)N(C)CC(=O)N(C)[C@@H](C(C)C)C(=O)O[C@@H]4C)c3nc-2c(C(=O)N[C@@H]2C(=O)N[C@H](C(C)C)C(=O)N3CCC[C@H]3C(=O)N(C)CC(=O)N(C)[C@@H](C(C)C)C(=O)O[C@@H]2C)c(N)c1=O : 1.7

Exercise: Name the recorded IC50 for CC(C)[C@H]1C(=O)O[C@H](C)[C@H](NC(=O)c2c3nc4c(C(=O)N[C@@H]5C(=O)N[C@H](C(C)C)C(=O)N6CCC[C@H]6C(=O)N(C)CC(=O)N(C)[C@@H](C(C)C)C(=O)O[C@@H]5C)ccc(Cl)c4oc-3c(Cl)c(=O)c2N)C(=O)N[C@H](C(C)C)C(=O)N2CCC[C@H]2C(=O)N(C)CC(=O)N1C .
Solution: 11.1
